Source listed as patent US20100273833A1.

measurement protocol: Solubility in water
Type: physicochemical
Where a name gives a salt, the structure may show the parent alone.
# cutoff 0.9 mg/mL applies to solubility in water; >= gives label 1, < gives label 0

Check out these entries, answers already filled in.
compound	class assignment
CC(=O)Nc1cc(-c2c(-c3ccc(F)cc3)nc([S+](C)[O-])n2C)ccn1 (stereo not drawn) [Example 3 hydrobromide]	label 1
CC(=O)Nc1cc(-c2c(-c3ccc(F)cc3)nc([S+](C)[O-])n2C)ccn1 (stereo not drawn) [Example 3 hydrogensulfate]	label 0
CC(=O)Nc1cc(-c2c(-c3ccc(F)cc3)nc([S+](C)[O-])n2C)ccn1 (stereo not drawn) [Example 3 hydrochloride]	label 1
CC(=O)Nc1cc(-c2c(-c3ccc(F)cc3)nc([S+](C)[O-])n2C)ccn1 (stereo not drawn) [Example 3 sulfate]	label 0

Shifting focus to the compound that follows.
[ask] Quick check: does CC(=O)Nc1cc(-c2c(-c3ccc(F)cc3)nc([S+](C)[O-])n2C)ccn1 (stereo not drawn) [Example 3] have solubility in water greater than or equal to 0.9 mg/mL?
[reply] label 0
